Data origin: patent US9233978B2

- method summary: Lysa solubility
- Assay type: physicochemical
- experimental context: 0.05 M phosphate buffer (pH 6.5)
Each item that follows carries a reported Lysa.

Worked cases, Lysa given:
[[record]]
compound = "COC(=O)C1=C(CN2CCN3C(=O)N(C4CCC(C(=O)O)C4)C[C@@H]3C2)NC(c2nccs2)=N[C@H]1c1ccc(F)cc1Cl (mixture of isomers) [Example 63]"
measured_value = ">751 µg/mL"

[[record]]
compound = "COC(=O)C1=C(CN2CCN3C(=O)N(C4CC4)C[C@H]3[C@@H]2C(=O)O)NC(c2nccs2)=N[C@H]1c1ccc(F)c(F)c1C (single isomer, unassigned) [Example 83A]"
measured_value = "> 740 µg/mL"


Request the reported Lysa associated with COC(=O)C1=C(CN2CCN3C(=O)N(C(C)C)C[C@H]3[C@@H]2C(=O)O)NC(c2nccs2)=N[C@H]1c1ccc(F)c(F)c1C (single isomer, unassigned) [Example 85A] > 660 µg/mL

Proceed to COC(=O)C1=C(CN2CCN3C(=O)N(C4CCC(C(=O)O)CC4)C[C@@H]3C2)NC(c2nccs2)=N[C@H]1c1ccc(F)cc1Cl (stereo partly shown) [Example 73] 564 µg/mL

----------
- Tested on: HepDE19 cells
- method summary: Cytotoxicity in HepDE19 cells (CCK-8) and selectivity index
- Format: cell-based
- experimental context: CC50 (HepDE19) value / EC50 (HepG2.2.15) value
property label: Selectivity index (CC50/EC50)

[[record]]
molecule = "COC(=O)C1=C(CN2CCN3C(=O)N(CC(C)(C)C(=O)O)C[C@@H]3C2)NC(c2nccs2)=N[C@H]1c1cccc(F)c1Cl"
measured_value = ">7194"

[[record]]
molecule = "CCOC(=O)C1=C(CN2CCN3C(=O)N(C4CC4)C[C@@H]3[C@H]2C(=O)O)NC(c2nccs2)=N[C@H]1c1cccc(F)c1Cl (single isomer, unassigned) [Example 82B]"
measured_value = ">50000"

[[record]]
molecule = "COC(=O)C1=C(CN2CCN3C(=O)N(Cc4ccc(C(=O)O)cc4)CC3C2)NC(c2nccs2)=N[C@H]1c1ccc(F)cc1Cl (stereo partly shown)"
measured_value = ">11111"

[[record]]
molecule = "CCOC(=O)C1=C(CN2CCN3C(=O)N(CC(C)(C)C(=O)O)C[C@@H]3C2)NC(c2nccs2)=N[C@H]1c1ccc(F)c(F)c1C"
measured_value = ">34482"

[[record]]
molecule = "COC(=O)C1=C(CN2CCN3C(=O)N(CC(C)(C)C(=O)O)C[C@@H]3C2)NC(c2nccs2)=N[C@H]1c1ccc(F)cc1Cl"
measured_value = ">15625"


Request the reported Selectivity index (CC50/EC50) associated with CCOC(=O)C1=C(CN2CCN3C(=O)N(C(C)C)C[C@@H]3C2)NC(c2nccs2)=N[C@H]1c1cccc(F)c1Cl (single isomer, unassigned) [Example 104B] >6750

Proceed to COC(=O)C1=C(CN2CCN3C(=O)N(C4CCC(C(=O)O)C4)C[C@@H]3C2)NC(c2nccs2)=N[C@H]1c1ccc(F)cc1Cl (mixture of isomers) [Example 61] >8333

----------
- Tested on: CYP3A4
- method summary: Cytochrome P450 induction screening assay, mRNA induction in human cryopreserved hepatocytes
- Assay type: in vitro ADME
- experimental context: CYP3A4 mRNA relative induction, 24 hours, test compound up to 10 μM
property label: % of Positive control (10 μM Rifampicin)

Worked cases, % of Positive control (10 μM Rifampicin) given:
[[record]]
compound = "COC(=O)C1=C(CN2CCN3C(=O)N(CC(C)(C)C(=O)O)C[C@@H]3C2)NC(c2nccs2)=N[C@H]1c1ccc(F)c(F)c1C [Example 43]"
property_label = "% of Positive control (10 μM Rifampicin)"
measured_value = "0.2%"

[[record]]
compound = "CCOC(=O)C1=C(CN2CCN3C(=O)N(CC4(C(=O)O)CC4)C[C@@H]3C2)NC(c2nccs2)=N[C@H]1c1cccc(F)c1Cl [Example 36]"
property_label = "% of Positive control (10 μM Rifampicin)"
measured_value = "6%"

[[record]]
compound = "CCOC(=O)C1=C(CN2CCN3C(=O)N(C4CC4)C[C@@H]3[C@H]2C(=O)O)NC(c2nccs2)=N[C@H]1c1cccc(F)c1Cl (single isomer, unassigned) [Example 82B]"
property_label = "% of Positive control (10 μM Rifampicin)"
measured_value = "6%"


Request the reported % of Positive control (10 μM Rifampicin) associated with COC(=O)C1=C(CN2CCN3C(=O)N(CC4(C(=O)O)CC4)C[C@@H]3C2)NC(c2nccs2)=N[C@H]1c1ccc(F)c(F)c1C [Example 38] 0.2%
